- ASSAYED TARGET: rat serum GPI-PLD (Rattus norvegicus)
- Construct: GPI-PLD (rat serum) was assayed according to
- Sequence (Q8R2H5 24-843): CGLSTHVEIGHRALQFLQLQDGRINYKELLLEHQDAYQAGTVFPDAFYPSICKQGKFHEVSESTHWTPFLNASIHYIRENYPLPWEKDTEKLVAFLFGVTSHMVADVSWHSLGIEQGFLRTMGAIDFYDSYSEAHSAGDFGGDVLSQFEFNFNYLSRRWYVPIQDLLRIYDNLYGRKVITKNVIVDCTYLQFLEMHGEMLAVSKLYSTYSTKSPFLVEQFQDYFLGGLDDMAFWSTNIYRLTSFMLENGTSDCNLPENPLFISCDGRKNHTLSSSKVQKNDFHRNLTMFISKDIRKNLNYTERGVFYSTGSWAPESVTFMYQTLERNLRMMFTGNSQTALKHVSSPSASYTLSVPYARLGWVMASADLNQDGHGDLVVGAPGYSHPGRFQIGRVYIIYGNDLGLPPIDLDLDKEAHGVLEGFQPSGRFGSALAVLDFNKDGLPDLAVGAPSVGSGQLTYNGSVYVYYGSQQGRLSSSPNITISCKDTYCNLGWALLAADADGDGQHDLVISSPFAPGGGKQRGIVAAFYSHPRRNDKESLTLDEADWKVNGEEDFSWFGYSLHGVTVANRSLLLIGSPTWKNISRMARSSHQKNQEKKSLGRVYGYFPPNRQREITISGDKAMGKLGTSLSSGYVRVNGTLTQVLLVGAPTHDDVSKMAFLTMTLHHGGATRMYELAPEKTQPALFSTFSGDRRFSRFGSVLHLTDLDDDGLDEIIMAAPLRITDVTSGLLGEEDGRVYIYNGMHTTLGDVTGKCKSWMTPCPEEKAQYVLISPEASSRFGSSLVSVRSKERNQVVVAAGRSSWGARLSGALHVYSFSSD
- MEASUREMENT PROTOCOL: GPI-PLD (rat serum) assay, human placental aP substrate
- APPLIED CONDITIONS: FIG. 2; read-out: apparent IC50
MEASURED QUANTITY: pIC50
The scale used: pIC50 is minus the common logarithm of the concentration in molar units.

// pIC50 value for CCCCCCCCCCCCP1(=O)O[C@@H]2[C@H](O)[C@@H](O)[C@H](O)[C@@H](O)[C@@H]2O1 (stereo partly shown) : 6.00

====

- ASSAYED TARGET: PI-PLC (B. cereus) (Bacillus cereus)
- Construct: purchased SigmalAldrich (Deisenhofen, Germany)
- Sequence (P14262 32-329 limits assumed): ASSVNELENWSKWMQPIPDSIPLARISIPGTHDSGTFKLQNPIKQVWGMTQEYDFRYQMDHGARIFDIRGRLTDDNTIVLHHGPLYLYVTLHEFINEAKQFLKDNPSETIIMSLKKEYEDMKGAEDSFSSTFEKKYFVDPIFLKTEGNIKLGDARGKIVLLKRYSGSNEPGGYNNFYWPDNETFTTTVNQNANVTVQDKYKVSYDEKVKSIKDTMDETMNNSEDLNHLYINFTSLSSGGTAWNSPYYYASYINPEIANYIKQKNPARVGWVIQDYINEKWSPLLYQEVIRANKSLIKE
- MEASUREMENT PROTOCOL: PI-PLC (B. cereus) assay, AChE substrate, TX-114 partitioning
- Assay type: biochemical
- APPLIED CONDITIONS: IC50, Table 1; inhibitor 0.05 μM-1 mM
- Method: GPI-PLD (rat serum) was assayed according to “Hari et al. (1997) Biochim. Biophys. Acta 1355: 293-302” by incubation with 10 μl of human placental aP solution (100 U/ml in 10 mM Hepes/NaOH, pH 7.0, 150 mM NaCl) in 100 μl of 200 mM Tris/maleate (pH 7.0) and 1% Nonidet P-40 for 10 min at 37° C. and subsequent termination of the reaction by addition of 0.4 ml of ice-cold stop buffer (10 mM Hepes/NaOH, pH 7.0, 150 mM NaCl, 0.1 mM MgCl2 and 0.01 mM zinc acetate). […]
MEASURED QUANTITY: IC50

// IC50 value for CCCCCCCCCCCCP1(=O)O[C@@H]2[C@H](O)[C@@H](O)[C@H](O)[C@@H](O)[C@@H]2O1 (stereo partly shown) [GPI-2350] : 10 to 20 µM

====

- ASSAYED TARGET: GPI-PLC (T. brucei) (Trypanosoma brucei brucei)
- Construct: purchased Oxford Glycosystems (Oxford, UK)
- Sequence (P09194 whole entry): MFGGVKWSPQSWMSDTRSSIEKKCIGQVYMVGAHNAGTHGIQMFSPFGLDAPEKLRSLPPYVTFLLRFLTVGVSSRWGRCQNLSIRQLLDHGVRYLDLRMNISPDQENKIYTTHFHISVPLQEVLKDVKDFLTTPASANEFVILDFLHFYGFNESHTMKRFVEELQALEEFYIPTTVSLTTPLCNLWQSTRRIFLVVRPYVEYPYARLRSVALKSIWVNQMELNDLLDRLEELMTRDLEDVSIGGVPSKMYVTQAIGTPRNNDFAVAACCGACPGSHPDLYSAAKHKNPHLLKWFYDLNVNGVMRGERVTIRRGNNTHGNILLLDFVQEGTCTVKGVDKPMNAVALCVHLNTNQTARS
- MEASUREMENT PROTOCOL: GPI-PLC (T. brucei) assay, human placental aP substrate, TX-114 partitioning
- Type: biochemical
- APPLIED CONDITIONS: apparent IC50, FIG. 2
MEASURED QUANTITY: pIC50
The scale used: pIC50 is minus the common logarithm of the concentration in molar units.

// pIC50 value for CCCCCCCCCCCCP1(=O)O[C@@H]2[C@H](O)[C@@H](O)[C@H](O)[C@@H](O)[C@@H]2O1 (stereo partly shown) : 5.70

src = patent US8017350B2
